# method: Mycobacterium tuberculosis growth inhibition, primary screen (AID 1259343)
# measurement.parameters: at 10 µM, stronger effect = higher value
Among all 6,200 compounds or so, about 2,900 (47%) were called active. So high a share suggests a set chosen from earlier hits. The list shows a part of the results.
Listed here are molecules together with their documented inhibition.
Report as a plain number; the unit % is understood.

Consider the reported inhibition for these molecules:
| molecule | inhibition / % |
| --- | --- |
| Cc1ccc(NC2CCCN(C(=O)c3cccs3)C2)cc1C (stereo not given) | 59.6 |
| Clc1ccc(CSc2ncccn2)cc1 | 55.1 |
| CCOC(=O)N1CCN(S(=O)(=O)CCCOc2ccc3c(c2)OCO3)CC1 | 32.5 |
| CN(CC1COc2ccccc2O1)C(=O)CCl (stereo not given) | -21.8 |
| Cc1ccc(OP(N)(=O)Oc2ccc(C)cc2)cc1 | -4.77 |

// query Record request: inhibition value, item COc1ccc(-c2cn3c(C(=O)Nc4nccs4)csc3n2)cc1
// result 10.8

// query Do the same for CNC(=O)c1ccc(OCc2cccc(F)c2)cc1 please
// result 78.6

// query Do the same for O=C(O)c1ccc(F)c(COc2ccc(F)cc2)c1 please
// result 18.4

---

# method: Mycobacterium tuberculosis growth inhibition, primary screen (AID 1259343)
# measurement.parameters: 10 uM
Among all 6,200 compounds or so, about 2,900 (47%) were called active. So high a share suggests a set chosen from earlier hits. The list shows a part of the results.
value.kind: outcome

| molecule | outcome |
| --- | --- |
| COc1ccc(/C=C/CN2CCCC(CO)(Cc3cccc(Cl)c3)C2)cc1 (stereo not drawn) | inactive |
| NC(=S)NN=Cc1c[nH]c2ccccc12 | inactive |
| c1ccc(CCc2nc(-c3ccncc3)no2)cc1 | inactive |
| Cc1ccc(-n2cc(-c3ccccc3)c3c(NCCCO)ncnc32)cc1Cl | inactive |

// query Record request: outcome value, item Cc1ccc(NC2CCCN(C(=O)c3cc4ccccc4o3)C2)cc1C (stereo not drawn)
// result inactive

// query Do the same for CCCCCCSc1nnc2[nH]c(=O)cc(N)n12 please
// result inactive

---

# method: Mycobacterium tuberculosis growth inhibition, primary screen (AID 1259343)
# measurement.parameters: at 10 µM
Among all 6,200 compounds or so, about 2,900 (47%) were called active. Cut-off read from the data, not from the text of the source: active = inhibition above about 50%; inactive = the rest. So high a share suggests a set chosen from earlier hits. This is one part of the list.
Hi! Could you answer with just one of these? y (active), n (inactive)

Please review the following examples before continuing.
| compound | assigned.class |
| --- | --- |
| COC(=O)c1ccc(CN(Cc2ccc(OC)cc2)C2CC2)o1 | y |
| CCOC(=O)C1(Cc2cccc(OC)c2)CCN(CC#Cc2ccccc2)CC1 | n |
| O=C(NCCc1ccc(F)cc1)C1Cc2ccccc2O1 (stereo not drawn) | y |
| CCOC(=O)CNc1c(-c2ccccc2Cl)nc2ccc(Br)cn12 | y |
| COCC(C)NC(=O)c1cccc(Oc2cccc(C(F)(F)F)c2)c1 (stereo not drawn) | n |

// query Record lookup: outcome of this test for COc1ccc(C(=O)c2ccccc2)c(O)c1O ?
// result y

// query Do the same for CCCCc1noc(CNc2cc(C(=O)NCC(F)(F)F)ccc2C)n1 please
// result n

// query Do the same for CC(=O)N1CCN(CC(=O)Nc2nc3ccc(F)cc3s2)CC1 please
// result n

// query Do the same for CC(C)c1ccc2c(c1O)CC[C@H]1C3=C(CC[C@]21C)C(=O)OC3 please
// result n

// query Do the same for COC(=O)c1cccc(NC(=O)N2CCN(CCCOC(c3ccc(Cl)cc3)c3ccc(Cl)cc3)CC2)c1 please
// result n

// query Do the same for CC(C)(CNC(=O)C1Cc2cc(F)ccc2O1)C1CCCCO1 (stereo not drawn) please
// result n

// query Do the same for COc1ccc(COc2ccc(Cl)cc2C(N)=O)cc1F please
// result n

// query Do the same for COc1cccc(CN(C)C(=O)c2cc3ccccc3o2)c1OC please
// result n

// query Do the same for O=C1Nc2ccc(Br)cc2C12Nc1ccccc1S2 (stereo not drawn) please
// result n

---

# method: Mycobacterium tuberculosis growth inhibition, primary screen (AID 1259343)
# measurement.parameters: at 10 µM, stronger effect = higher value
Screen size: about 6,200 compounds; about 2,900 (47%) were called active. So high a share suggests a set chosen from earlier hits. The list shows a part of the results.
Please enter y where inhibition is greater than or equal to 70%, and n where it is lower.

Please review the following examples before continuing.
| compound | assigned.class |
| --- | --- |
| CCOC(=O)C(C)Sc1ncnc2c1nnn2Cc1ccc(F)cc1 (centres undefined) | n |
| O=C(Nc1ccc(N2CCc3ccccc32)cc1)C1CCOC1 (centres undefined) | y |
| COc1ccc(-c2nn(-c3ccccc3)cc2CN2CCN(c3cnccn3)CC2)c(F)c1 | n |
| O=S(=O)(CCCOc1ccc2c(c1)OCO2)NC1CCCCC1 | y |

// query Hello, I need to know if Nc1ccc(-c2nc(-c3ccccc3)c3cc(N)ccc3n2)cc1 has measured inhibition not below 70%. Thanks!
// result n

// query Do the same for Clc1ccc(-c2csc(NCC3CCCO3)n2)c(Cl)c1 (centres undefined) please
// result y

// query Do the same for S=c1nc[nH]c2nc[nH]c12 please
// result n

// query Do the same for CC(CCc1ccccc1)NC(=O)c1cc(Cl)ccn1 (centres undefined) please
// result n

// query Do the same for CCOC(=O)CNC(=O)CSc1ncnc2c1nnn2Cc1ccc(F)cc1 please
// result n

---

# method: Mycobacterium tuberculosis growth inhibition, primary screen (AID 1259343)
# measurement.parameters: at 10 µM, stronger effect = higher value
The campaign covered roughly 6,200 compounds. About 2,900 (47%) were called active. The set was probably picked from earlier hits. The list shows a part of the results.
Please enter Met where inhibition is greater than or equal to 60%, and Not met where it is lower.

| molecule | assigned.class |
| --- | --- |
| CCc1c(C)c(C#N)c2[nH]c3ccccc3n2c1=S | Not met |
| Brc1ccc(Oc2nnc(-c3ccccc3)s2)cc1 | Not met |
| O=C(NC1CCCC1)c1ccc(Br)o1 | Not met |

// query Hello, I need to know if CCCc1cc(=O)[nH]c(-n2nc(C)cc2NC(=O)c2ccc(Br)cc2)n1 has measured inhibition not below 60%. Thanks!
// result Met

// query Do the same for Cc1cccc(CO[C@]2(C(=O)NCC3CCCO3)CC(OCc3ccc(F)cc3)[C@H](O)[C@H](O)C2)c1 (some centres undefined) please
// result Not met

// query Do the same for CCCn1ncc(CN2CCOC(c3ccc(Cl)c(Cl)c3)C2)c1C (centres undefined) please
// result Not met

// query Do the same for COc1cc(/C=C/c2ncc(C(=O)O)s2)cc(Cl)c1OC please
// result Met

// query Do the same for C=CCn1c(-c2ccc(Cl)cc2Cl)csc1=Nc1cccc(O)c1 please
// result Not met

// query Do the same for COc1ccc(NC(=O)c2sc(=O)n(Cc3ccccc3)c2C)cc1 please
// result Not met

// query Do the same for Nc1ccc2nc(SCc3ccc(F)cc3)sc2c1 please
// result Not met

// query Do the same for N#Cc1c(C(F)(F)F)cc(=O)n2c1[nH]c1ccccc12 please
// result Met

// query Do the same for Cc1ccc(CNC(=O)c2ccc(Br)o2)cc1F please
// result Not met

// query Do the same for c1ccc(C(Cn2cncn2)NCc2cccs2)cc1 (centres undefined) please
// result Not met

---

# method: Mycobacterium tuberculosis growth inhibition, primary screen (AID 1259343)
# measurement.parameters: at 10 µM
Hit rate of the full screen: of about 6,200 compounds, about 2,900 (47%) were called active. Cut-off read from the data, not from the text of the source: active = inhibition above about 50%; inactive = the rest. The set was probably picked from earlier hits. Some of the results follow.
Hi! Could you answer with just one of these? active, inactive

| compound | assigned.class |
| --- | --- |
| CCN(CC)c1n[nH]c(-c2cccc(Cl)c2)n1 | inactive |
| COCCNC(=O)N(C)CC1CCC(C)CC1 (configuration not stated) | inactive |
| CCC(=O)c1cccc(-c2ccc(NC(C)=O)cc2)c1 | active |
| Clc1cccc(-c2ccc3nnc(Cl)nc3c2)c1 | active |
| Cc1ccc(C2(CCN)CCOC(C(C)C)C2)cc1 (configuration not stated) | active |

Please examine the following record next.
// query Record lookup: outcome of this test for OC1(c2cccs2)C[N+]2=C(SCC2)N1c1ccccc1 (configuration not stated) ?
// result inactive

---

# method: Mycobacterium tuberculosis growth inhibition, primary screen (AID 1259343)
# measurement.parameters: at 10 µM, stronger effect = higher value
The whole screen tested about 6,200 compounds, of which about 2,900 (47%) were called active. The set was probably picked from earlier hits. The list shows a part of the results.
value.kind: inhibition (%)
Report as a plain number; the unit % is understood.

| compound | unit.annotation | inhibition |
| --- | --- | --- |
| N#CC1=C2Sc3ccccc3N2C(O)(C(F)(F)F)C(C(=O)C(F)(F)F)=C1 (stereo not given) | % | 71.5 |

// query Record request: inhibition value, item COc1ccc(-c2c(C)noc2-c2ccc(OC)cc2O)cc1
// result 16.2

// query Do the same for Oc1ccc(Br)cc1C=NNc1ccc(F)cc1F please
// result 58.9

// query Do the same for c1cc2c3c(cccc3c1)/C(=N/OCC1CO1)C2 (stereo not given) please
// result 101

// query Do the same for CN(C)C=Nc1ccc(OC(F)F)c(Cl)c1 please
// result 92

All values here come from PubChem BioAssay AID1259343.
